Values compiled from patent US12642270B2.

# assay-details: Log P by HPLC on reversed phase columns (EEC directive 79/831 Annex V.A8)
# Type: physicochemical
# reported-conditions: LogP method [a]; compounds of formula (I), Table 1.1
Item-by-item account of LogP

Here's what some known entries look like.
                                   compound  observed_result
0  CC(C)(NC(=O)c1sc(Br)c(Br)c1F)C(=O)O [1.0523]         2.54^[a]
1  CCSC(=O)C1(NC(=O)c2cc(I)c(I)s2)CC1 [1.0480]         3.39^[a]
2  CCCOC(=O)C1(NC(=O)c2sc(C(F)F)c(Br)c2Br)CC1 [1.0519]         3.51^[a]

Could you share which LogP value was measured for COC(=O)C1(NC(=S)c2sc(Br)c(Cl)c2C)CC1 [1.0526] ?
3.67^[a]

Can you share its LogP? I mean this compound: COC(=O)CNC(=O)c1sc(C(F)F)c(Br)c1Br [1.0511]
2.64^[a]

Entry under review: COC(=O)C1(NC(=O)c2sc(Br)c(C(F)F)c2Br)CCC1 [1.0505] . Reported LogP?
3.25^[a]

----------
Readings of LogP for the listed compounds
# assay-details: Log P by HPLC on reversed phase columns (EEC directive 79/831 Annex V.A8)
# Format: physicochemical
# reported-conditions: method [a]

                                   compound  observed_result
0  CC(C)(C)OC(=O)C(NC(=O)c1sc(Br)c(Br)c1Cl)C1CC1 (centres unmarked)         5.36^[a]

# input for lookup
Requested field: LogP. Item: `C#CCOC(=O)CNC(=O)c1sc(Cl)c(Cl)c1C#N`
2.58^[a]

----------
# assay-details: Log P by HPLC on reversed phase columns (EEC directive 79/831 Annex V.A8)
# Type: physicochemical
# reported-conditions: method marker [a] given with each value; Table 1.1, compounds of formula (I)
Overview of recorded LogP for various compounds

Completed entries (count: 6):
>>> print(df.to_string())
                                   compound  observed_result
0  COC(=O)C(CCSC)NC(=O)c1sc(Cl)c(Cl)c1C(F)F (stereo not drawn)         3.52^[a]
1  CCOC(=O)C(CO)NC(=O)c1sc(Br)c(Br)c1C(F)F (stereo not drawn)         2.63^[a]
2           CCOC(=O)CNC(=S)c1sc(Br)c(Br)c1F         4.23^[a]
3  N#CC1(NC(=O)c2sc(Br)c(Br)c2Cl)CCCSC1 (stereo not drawn)         3.85^[a]
4  Cc1c(C(=O)NC2(C(=O)OC3CCC3)CC2)sc(C#N)c1Br         3.13^[a]
5  COC(=O)C(C)(C)NC(=O)c1sc(Br)c(Br)c1C(F)F         3.21^[a]

Which LogP is reported for this compound? `C#CCOC(=O)CNC(=O)c1sc(Br)c(Br)c1Cl`
3.20^[a]

Which measured LogP value corresponds to `CCCCOC(=O)CNC(=O)c1sc(Br)c(Br)c1Cl` ?
4.22^[a]

----------
# assay-details: Log P by HPLC on reversed phase columns (EEC directive 79/831 Annex V.A8)
# Assay type: physicochemical
# reported-conditions: method marked [a]
measurement-label: LogP

In [3]: df
Out[3]:
                                   molecule  observed_result
0     COC(=O)C1(NC(=S)c2sc(Cl)c(Cl)c2Br)CC1         4.06^[a]
1  CCOC(=O)C(NC(=O)c1sc(Cl)c(Br)c1C)C(=O)OCC         3.87^[a]
2      COC(=O)C1(NC(=O)c2cc(Br)c(C#N)s2)CC1         2.10^[a]
3  O=C(NC1(C(=O)O)CC1)c1cc(Br)c(C(F)(F)F)s1         2.44^[a]
4       CCOC(=O)CNC(=O)c1sc(Br)c(Br)c1C(F)F         3.01^[a]

I am curious: what LogP value has been reported for CCOC(=O)C(NC(=O)c1cc(Br)c(C(F)(F)F)s1)C(C)C (stereo not shown) ?
4.18^[a]

I am curious: what LogP value has been reported for `COC(=O)C1(NC(=S)c2sc(Br)c(Br)c2F)CC1` ?
3.91^[a]

Requested read-out: LogP. Entry: `CCOC(=O)CNC(=O)c1cc(C#N)c(Cl)s1`
2.08^[a]

----------
Reported LogP values follow for various molecules
# assay-details: Log P by HPLC on reversed phase columns (EEC directive 79/831 Annex V.A8)
# Format: physicochemical
# reported-conditions: method [a]

# annotated cases, reported LogP shown
                                   molecule  observed_result
0  COC(=O)C(NC(=O)c1sc(C#N)c(Br)c1C)C1CC1 (centres unmarked) [1.0261]         2.75^[a]
1  COC(=O)C1(NC(=O)c2cc(Cl)c(F)s2)CC1 [1.0901]         2.13^[a]

Entry under review: CCOC(=O)C(Cc1ccccc1)NC(=O)c1sc(Cl)c(Br)c1C#N (centres unmarked) [1.0628] . Reported LogP?
4.00^[a]

Entry CCNC(=O)SC[C@H](NC(=O)c1sc(Cl)c(Cl)c1Br)C(=O)OC [1.0530] has what LogP?
3.39^[a]

# get_value(readout='LogP', item= CCOC(=O)[C@H](CO)NC(=O)c1sc(Cl)c(Cl)c1C#N [1.0830] )
2.22^[a]

----------
# assay-details: Log P by HPLC on reversed phase columns (EEC directive 79/831 Annex V.A8)
# Assay type: physicochemical
# reported-conditions: method [a]; compounds of formula (I), Table 1.1
Listing: LogP of selected molecules

Would you mind telling me what LogP value was observed for `CCOC(=O)CCNC(=O)c1sc(Cl)c(Cl)c1Br` ?
3.50^[a]

What value of LogP has been recorded for this entry: `CCOC(=O)CNC(=O)c1sc(C)c(Br)c1F`
2.69^[a]

Endpoint output: LogP of `CCOC(=O)CNC(=O)c1sc(Cl)c(Br)c1C` . Value?
2.98^[a]

Requested read-out: LogP. Entry: CCOC(=O)C(Cc1ccccc1)NC(=O)c1sc(Br)c(Br)c1F (centres unmarked)
4.55^[a]

# lookup: LogP of CCOC(=O)C(CC(C)C)NC(=O)c1sc(Br)c(Br)c1F (centres unmarked)
4.67^[a]

Look up LogP for this molecule: CCOC(=O)C(CC(C)C)NC(=O)c1sc(I)c(Br)c1C (centres unmarked)
4.56^[a]

Name the recorded LogP for CCOC(=O)C(Cc1ccccc1)NC(=O)c1cc(F)c(Br)s1 (racemic) .
3.69^[a]

Recorded LogP of CCOC(=O)C(Cc1ccccc1)NC(=O)c1sc(Br)c(Cl)c1C (centres unmarked) , please.
4.46^[a]

Consider the molecule shown here: `CCOC(=O)C1(NC(=O)c2sc(Cl)c(Br)c2C)CCOCC1` What is its recorded LogP?
3.15^[a]

What does the record list as LogP for CCOC(=O)C(Cc1ccc(O)cc1)NC(=O)c1sc(Br)c(Cl)c1C (centres unmarked) ?
3.29^[a]

Would you mind telling me what LogP value was observed for `Cc1c(C(=O)NCC(=O)SCc2ccccc2)sc(Cl)c1Br` ?
4.37^[a]

Would you kindly share the measured LogP for Cc1c(C(=O)NC(C#N)Cc2ccccc2)sc(Br)c1Cl (centres unmarked) ?
3.92^[a]

Report LogP for CCOC(=O)C(Cc1ccccc1)NC(=O)c1sc(I)c(Br)c1C (centres unmarked) please.
4.46^[a]

Bench note: what LogP did CCOC(=O)C(Cc1ccc(O)cc1)NC(=O)c1sc(Cl)c(Br)c1C (centres unmarked) show?
3.33^[a]

----------
# assay-details: Log P by HPLC on reversed phase columns (EEC directive 79/831 Annex V.A8)
# Format: physicochemical
# reported-conditions: method [a]: LC-UV, acidic range, 0.1% formic acid in water and acetonitrile
measurement-label: LogP

>>> print(df.to_string())
                     molecule  observed_result
0  CCOC(=O)c1sc(C#N)c(Cl)c1Br         3.56^[a]

I'd like to know its LogP. The molecule in question is `O=C(O)c1sc(Cl)c(Br)c1F`
2.14^[a]

----------
# assay-details: Log P by HPLC on reversed phase columns (EEC directive 79/831 Annex V.A8)
# Type: physicochemical
# reported-conditions: method [a]
measurement-label: LogP

                                   molecule  measurement_label  observed_result
0  CCOC(=O)C(NC(=O)c1sc(C#N)c(Cl)c1Cl)C(C)C (stereo not drawn) [1.0575]               LogP         3.89^[a]
1  COC(=O)C[C@H](NC(=O)c1sc(Cl)c(Cl)c1Br)C(=O)OC [1.0548]               LogP         3.33^[a]
2  CCOC(=O)C(CSC)NC(=O)c1sc(Br)c(Br)c1F (stereo not drawn) [1.0556]               LogP         3.87^[a]
3  COC(=O)C1(NC(=O)c2sc(C#N)c(Cl)c2Cl)CCC1 [1.0578]               LogP         2.94^[a]
4  CCOC(=O)C1(NC(=O)c2sc(Br)c(Br)c2F)CCC1 [1.0166]               LogP         3.78^[a]

Fill blank: measured LogP of the molecule O=C(NC1(C(=O)OC2CCC2)CC1)c1cc(Br)c(Cl)s1 [1.0607] is ____.
3.46^[a]

Could you tell me which LogP is on file for COC(=O)C(CCSC)NC(=O)c1sc(C#N)c(Cl)c1Cl (stereo not drawn) [1.0791] ?
3.26^[a]

I would be grateful if you could share the reported LogP for N#CCNC(=O)c1sc(C#N)c(Cl)c1Cl [1.0582] .
2.04^[a]

So what does the record say about LogP for O=C(NC1(C(=O)OC2CCCCC2)CCC1)c1sc(Cl)c(Cl)c1Br [1.0880] ?
5.89^[a]

Dear colleague, I am looking for the recorded LogP of the following molecule: CCOC(=O)CCNC(=O)c1sc(Br)c(Br)c1Cl [1.0143]
3.53^[a]
